Hello, the source for this data is ChEMBL document CHEMBL1201862, in case you need it.

test system: SK-MEL-28; test: NCI tumour cell line growth inhibition, 48 h
Activity calls are given as the source filed them. Cut-off read from the data, not from the text of the source: active = GI50 up to about 1.1 µM and inactive = higher.
For each entry below, report its GI50 value.

Check out these entries, answers already filled in.
CC(=O)OCC1OC(n2c3c(c(-c4cccc5ccccc45)c(C#N)c2=S)CCCC3)C(OC(C)=O)C(OC(C)=O)C1OC(C)=O (stereo not given)	> 100 µM (inactive)
CCN(CC)CCOC(=O)CCN1CC2CCC(CC2)C1	> 100 µM (inactive)
N#Cc1cccc(N2C(=O)C3C4C=CC(C3C2=O)C2C(=O)N(c3cccc(C#N)c3)C(=O)C42)c1 (stereo not given)	> 63.1 µM (inactive)
COc1ccc(/C=C/C(=O)c2cccc(C(=O)/C=C/c3ccc(OC)c(OC)c3)n2)cc1OC	15.8 µM (inactive)

[Q] State the recorded GI50 for this entry: COc1ccc(Cn2nc(OCc3ccccc3)c3cc([N+](=O)[O-])ccc32)cc1
[A] > 100 µM (inactive)

----------
system: Malme-3M; test: NCI tumour cell line growth inhibition, 48 h
Active and inactive are the calls of the source. Rule as the data show it: active = GI50 up to about 1.1 µM and inactive = higher.
Allowed answers: active, inactive

O=C(O)CCC(=O)Nc1ccc2c(c1)S(=O)(=O)N(CC(=O)O)C2=O	inactive

[Q] Hey, what did the test say about CCCCCC(/C=N/N)C(O)(C(F)(F)F)C(F)(F)F (stereo unspecified) ?
[A] inactive

[Q] Would you mind telling me which call this test gave CC(=O)OCC1OC(O/C=C(\CN=[N+]=[N-])C(C)=O)C(OC(C)=O)C(OC(C)=O)C1OC(C)=O (stereo unspecified) ?
[A] inactive

----------
test system: SK-MEL-2; assay: NCI tumour cell line growth inhibition, 48 h
Active and inactive are the calls of the source. Rule as the data show it: active = GI50 up to about 1.1 µM and inactive = higher. Where a SMILES comes first, the peptide text is derived from it. The star is where a group is joined. Boc = CC(C)(C)OC(=O)*; OBn = c1ccc(CO*)cc1
Readout: GI50

Worked examples, 3 compounds total:
CCOc1nc(-c2ccccc2)cc(-c2ccc(N3CCOCC3)cc2)c1C#N	> 100 µM (inactive)
CC(C)=CC[C@]12CCN[C@H]1N(S(=O)(=O)c1ccccc1)c1ccccc12	14.2 µM (inactive)
CCCCCCNC(=O)c1cc(CCc2cc(O)ccc2O)ccc1O	2.74 µM (inactive)

Required: GI50, one value per compound below.
1. O=C(O)COc1ccc(C(=O)/C(SS/C(C(=O)c2ccc(OCC(=O)O)c(Cl)c2Cl)=C2\C=C(c3ccc(F)cc3)SS2)=C2/C=C(c3ccc(F)cc3)SS2)c(Cl)c1Cl
2. CCOc1c(OC)cc(C2c3cc4c(c(OCC)c3CC3COC(=O)C32)OCO4)cc1OC (centres undefined)
3. O=P1(N(CCCl)CCCl)Oc2c(Cl)cc(Cl)c(Cl)c2Cc2c(Cl)c(Cl)cc(Cl)c2O1
4. CN(CC(=O)O)S(=O)(=O)c1ccc2ccccc2c1
5. CC(C)[Si](OC/C(=C/COC(C)(C)C)[C@H]1CC=C(C(=O)c2ccccc2N2CN(C)C(=O)N(C)C2)C1)(C(C)C)C(C)C
6. Nc1ccccc1SCc1csc(-c2ccc(Cl)cc2)n1
7. CC(N)Cc1ccc(Cl)cc1 (centres undefined)
8. CC(C)(C)OC(=O)NC(Cc1ccccc1)C(=O)NC(Cc1ccccc1)C(=O)NCC(=O)OCc1ccccc1 (stereo not drawn) (Boc-Phe-Phe-Gly-OBn; configuration not given here)

[A]
1: 15.6 µM (inactive); 2: 13.2 µM (inactive); 3: 22 µM (inactive); 4: > 100 µM (inactive); 5: 13.6 µM (inactive); 6: 16.4 µM (inactive); 7: > 100 µM (inactive); 8: 33.6 µM (inactive)

Respectfully, I request GI50 for each entry included below.
1. CN(C)c1ccc(/C=C(/C(=O)O)c2csc(-c3nc(/C(=C\c4ccc(N(C)C)cc4)C(=O)O)cs3)n2)cc1
2. O=c1[nH]nc(NCCc2ccccc2)c2nnn(Cc3ccccc3)c12

[A]
1. > 100 µM (inactive)
2. > 100 µM (inactive)

Please look at the items below and tell me GI50 for each one, in order.
1. O=C(Cc1nc2ccccc2s1)NC12CC3CC(CC(C3)C1)C2
2. O=C1OCC/C1=N/O
3. COC(=O)C12CCC(C)(C)CC1C1=CCC3C4(C)CC(O)C(O)C(C)(C(=O)OC)C4CCC3(C)C1(CO)CC2 (centres undefined)
4. COc1ccc(-n2c(CCC(=O)O)nc3c2C(=O)c2ccccc2C3=O)cc1
5. COc1cc(CNc2cnc3ccc(N)cc3n2)cc(OC)c1OC
6. N#CCCN(CCC#N)c1ccc(/C=C(/NC(=O)Nc2ccccc2Cl)NC(=O)c2cc([N+](=O)[O-])ccc2Cl)cc1

[A]
["> 100 µM (inactive)", "> 100 µM (inactive)", "14 µM (inactive)", "88.1 µM (inactive)", "> 100 µM (inactive)", "> 100 µM (inactive)"]
